Ref: PubChem BioAssay (NCI)

Tested on: SK-OV-3 ovarian
test.protocol: NCI tumour cell line growth inhibition, 48 h
assay.metric: TGI

// solved cases for TGI follow
Look at this compound and give its reported TGI. `CC/C(=N/O)c1ccc(Br)s1`
> 100 µM

What value of TGI has been recorded for this entry: CSc1nc(Cl)c2c(n1)Sc1nc3cc4c(cc3n1C2O)OCO4 (stereo not given)
> 75.3 µM

Suppose we examine the compound O=C1CCC(c2ccccc2)C(O)(C(=O)O)C1 (stereo not given) ; what TGI value has been reported?
> 100 µM

More entries:
Consider the compound `O=C(O)c1cc(N=Nc2ccc([As](=O)(O)O)cc2)ccc1O` and give its measured TGI.
> 100 µM

Name the reported TGI value associated with the compound `CCSc1nc(N2CCOCC2)c2cn[nH]c2n1`
> 100 µM

----------
Test system: NCI-H23 lung
test.protocol: NCI tumour cell line growth inhibition, 48 h
Reported TGI values follow for various compounds

Some entries whose results are on file:
I have this compound here, `Cc1ccc(C(=O)/C=C/c2ccccc2O)c(C)c1` , and I need its recorded TGI.
> 100 µM

Item `CCc1nc2ccccc2c(=O)n1/N=C(\N=Nc1ccc(Cl)cc1)c1ccccc1Cl` has what recorded TGI?
> 100 µM

More entries:
Record request: TGI value, item `N#[O+].O=S(=O)([O-])[O-].[NH2-].[NH2-].[NH2-].[NH2-].[NH2-].[Ru+5]`
> 100 µM

----------
In this section, each of the compounds is paired with its reported TGI.
Tested on: MCF7 breast
test.protocol: NCI tumour cell line growth inhibition, 48 h
Only the number, expressed in µM, is required.

TGI for `O=C(CCCSc1nc(-c2ccc(Cl)cc2)cc(-c2ccc(Cl)cc2)n1)NO` ?
12.4

Need TGI, item `COc1ccc(/C(=N/Nc2ccc([N+](=O)[O-])cc2)Sc2cc(Cl)c(C)cc2S(N)(=O)=O)cc1`
15.6

----------
System: UO-31 renal
test.protocol: NCI tumour cell line growth inhibition, 48 h
Recorded TGI for the following compounds

Worked cases, TGI given:
Returns the measured TGI for the input compound. Input: `O=C(NCCCNC(=O)c1ccc2cc(O)c(O)cc2c1)c1ccc2cc(O)c(O)cc2c1`
> 100 µM

What value of TGI has been recorded for this entry: `CN(C)CC(CN(C)C)c1ccccn1`
> 100 µM

Please find the next compound below.
Which TGI is reported for this compound? `CC(=O)O[C@@H]1C=C(C)[C@H](CBr)O[C@@]2(C)CC[C@H](Br)C(C)(C)[C@H]12`
> 100 µM

----------
System: RXF 393 renal
test.protocol: NCI tumour cell line growth inhibition, 48 h
assay.metric: TGI

Using the record for `CCc1cccc(C)c1NC(C)=O` , report its TGI.
> 100 µM

Next:
Query: TGI; subject: `Nc1nc(Cl)cc(NCC2(CO)COC2)n1`
> 100 µM

Fill in: TGI of `Cc1oc2nc(N(C)C)nc(Cl)c2c1C` is ___
> 100 µM

Name the reported TGI value associated with the molecule `N#Cc1cnsc1`
> 100 µM

Field request: TGI | item: `O=C(CSc1nnc(Cc2ccccc2)o1)Nc1cccc([N+](=O)[O-])c1`
> 100 µM

# TGI lookup, item `Cc1c2c(nn1-c1ccc(S(=O)(=O)/N=C3\SCC(=O)N3C(=O)c3ccccc3)cc1)-c1ccccc1CC2`
77.5 µM

Which TGI value belongs to `CO/N=C(\C(=O)Nc1cncs1)c1csc(NC(c2ccccc2)(c2ccccc2)c2ccccc2)n1` ?
> 10 µM
